- Test system: SN12C (Kidney Carcinoma);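 also: after 72 h of two-drug dosing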
- Assay info: Bliss excess, mean over the matrix (fraction); higher = more synergy
Note to self: values exactly at -0.01 are 1.0. So Bliss excess at or above -0.01 is 1.0, below is 0.0.

molecule="COc1cccc(OCCCN)c1-c1cc(Nc2cnc(C#N)cn2)n[nH]1 [Prexasertib] + O=C(c1cc(Cc2n[nH]c(=O)c3ccccc23)ccc1F)N1CCN(C(=O)C2CC2)CC1 [Olaparib] (first compound max 1 µM, 7x7, partner max 10 µM)" discrete_label=0.0
molecule="Cc1c2c(nn1C)CSCc1cc(n(C)n1)CSc1cc(c3ccccc3c1)OCCCc1c(C(=O)O)n(C)c3c-2c(Cl)ccc13 [AZD5991] + CS(=O)(=O)CCNCc1ccc(-c2ccc3ncnc(Nc4ccc(OCc5cccc(F)c5)c(Cl)c4)c3c2)o1 [Lapatinib] (first compound max 1 µM, 7x7, partner max 10 µM)" discrete_label=1.0
molecule="COc1nnc2ccc(N3CCC(c4ccc(OCCN5CCN(C)C(=O)[C@H]5C)cc4)CC3)nn12 [AZD5153] + Cn1cnc2c(F)c(Nc3ccc(Br)cc3Cl)c(C(=O)NOCCO)cc21 [Selumetinib] (first compound max 1 µM, 7x7, partner max 10 µM)" discrete_label=1.0

query: Identify whether the reported Bliss excess of the following molecule is -0.01 or greater: CN(CCO)CC[C@H](CSc1ccccc1)Nc1ccc(S(=O)(=O)NC(=O)c2ccc(N3CCC([C@@H](O)c4ccccc4-c4ccc(Cl)cc4)CC3)cc2)cc1S(=O)(=O)C(F)(F)F [AZD4320] + C1CN(CCC1(C(=O)N[C@@H](CCO)C2=CC=C(C=C2)Cl)N)C3=NC=NC4=C3C=CN4 [Capivasertib] (first compound max 1 µM, 7x7, partner max 3 µM)
result: 0.0

query: Another: Cc1c2c(nn1C)CSCc1cc(n(C)n1)CSc1cc(c3ccccc3c1)OCCCc1c(C(=O)O)n(C)c3c-2c(Cl)ccc13 [AZD5991] + Nc1ccn([C@@H]2O[C@H](CO)[C@@H](O)C2(F)F)c(=O)n1 [Gemcitabine] (first compound max 1 µM, 7x7, partner max 0.3 µM)
result: 0.0

query: Another: NC1(C(=O)N[C@@H](CCO)c2ccc(Cl)cc2)CCN(c2ncnc3[nH]ccc23)CC1 [Capivasertib] + CCN(CCO)CCCOc1ccc2c(Nc3cc(CC(=O)Nc4cccc(F)c4)[nH]n3)ncnc2c1 [AZD2811] (first compound max 10 µM, 7x7, partner max 1 µM)
result: 0.0
